molecular target: PD-1 expressed on modified HEK-Blue IL-2 reporter cell clones (UniProt Q15116 25-288, limits assumed); test: cell-based or functional assay
Sequence (Q15116 25-288 limits assumed): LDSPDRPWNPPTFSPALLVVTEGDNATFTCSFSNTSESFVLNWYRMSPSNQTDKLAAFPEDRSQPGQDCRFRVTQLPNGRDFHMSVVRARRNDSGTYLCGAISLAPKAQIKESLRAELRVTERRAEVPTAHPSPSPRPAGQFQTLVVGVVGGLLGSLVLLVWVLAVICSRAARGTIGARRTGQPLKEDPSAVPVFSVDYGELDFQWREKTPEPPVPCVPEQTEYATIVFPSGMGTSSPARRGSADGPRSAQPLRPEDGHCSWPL
value_type: EC50 (nM), IL-2 reporter cells expressing PD-1
Use nM as the unit, but write only the number.

Completed entries (count: 6):
binder | result_value
polypeptide comprising modified IL-2 (T3A, H16A, K43E, Y45R, P65R, D84S, C125S) fused to the C-terminus of a PD-1-binding VHH (other, not shown: a dimerising Fc or GST; small tags and cut ends) APASSSTKKTQLQLEALLLDLQMILNGINNYKNPKLTRMLTFEFRMPKKATELKHLQCLEEELKRLEEVLNLAQSKNFHLRPRSLISNINVIVLELKGSETTFMCEYADETATIVEFLNRWITFSQSIISTLT | 0.002
polypeptide comprising modified IL-2 (T3A, H16A, F42R, P65R, D84S, C125S) fused to the C-terminus of a PD-1-binding VHH (other, not shown: a dimerising Fc or GST; small tags and cut ends) APASSSTKKTQLQLEALLLDLQMILNGINNYKNPKLTRMLTRKFYMPKKATELKHLQCLEEELKRLEEVLNLAQSKNFHLRPRSLISNINVIVLELKGSETTFMCEYADETATIVEFLNRWITFSQSIISTLT | 0.003
polypeptide comprising modified IL-2 (T3A, H16A, R38A, P65R, D84S, C125S) fused to the C-terminus of a PD-1-binding VHH (other, not shown: a dimerising Fc or GST; small tags and cut ends) APASSSTKKTQLQLEALLLDLQMILNGINNYKNPKLTAMLTFKFYMPKKATELKHLQCLEEELKRLEEVLNLAQSKNFHLRPRSLISNINVIVLELKGSETTFMCEYADETATIVEFLNRWITFSQSIISTLT | 0.002
polypeptide comprising modified IL-2 (T3A, H16A, Δ42, P65R, D84S, C125S) fused to the C-terminus of a PD-1-binding VHH (other, not shown: a dimerising Fc or GST; small tags and cut ends, also called IL-2-T3A-H16A-ΔF42-P65R-D84S-C125S) APASSSTKKTQLQLEALLLDLQMILNGINNYKNPKLTRMLTKFYMPKKATELKHLQCLEEELKRLEEVLNLAQSKNFHLRPRSLISNINVIVLELKGSETTFMCEYADETATIVEFLNRWITFSQSIISTLT | 0.005
polypeptide comprising modified IL-2 (T3A, H16A, P65R, D84S, C125S) fused to the C-terminus of a PD-1-binding VHH (other, not shown: a dimerising Fc or GST; small tags and cut ends) APASSSTKKTQLQLEALLLDLQMILNGINNYKNPKLTRMLTFKFYMPKKATELKHLQCLEEELKRLEEVLNLAQSKNFHLRPRSLISNINVIVLELKGSETTFMCEYADETATIVEFLNRWITFSQSIISTLT | 0.001
polypeptide comprising modified IL-2 (T3A, H16A, E61R, P65R, D84S, C125S) fused to the C-terminus of a PD-1-binding VHH (other, not shown: a dimerising Fc or GST; small tags and cut ends) APASSSTKKTQLQLEALLLDLQMILNGINNYKNPKLTRMLTFKFYMPKKATELKHLQCLERELKRLEEVLNLAQSKNFHLRPRSLISNINVIVLELKGSETTFMCEYADETATIVEFLNRWITFSQSIISTLT | 0.002

Item: polypeptide comprising modified IL-2 (T3A, H16A, K43E, P65R, D84S, C125S) fused to the C-terminus of a PD-1-binding VHH (other, not shown: a dimerising Fc or GST; small tags and cut ends) APASSSTKKTQLQLEALLLDLQMILNGINNYKNPKLTRMLTFEFYMPKKATELKHLQCLEEELKRLEEVLNLAQSKNFHLRPRSLISNINVIVLELKGSETTFMCEYADETATIVEFLNRWITFSQSIISTLT | EC50 (nM), IL-2 reporter cells expressing PD-1: 0.001

Item: polypeptide comprising modified IL-2 (T3A, H16A, P65R, D84S, I114F, C125S) fused to the C-terminus of a PD-1-binding VHH (other, not shown: a dimerising Fc or GST; small tags and cut ends) APASSSTKKTQLQLEALLLDLQMILNGINNYKNPKLTRMLTFKFYMPKKATELKHLQCLEEELKRLEEVLNLAQSKNFHLRPRSLISNINVIVLELKGSETTFMCEYADETATFVEFLNRWITFSQSIISTLT | EC50 (nM), IL-2 reporter cells expressing PD-1: 0.002
